# credit: the supplement of paper PMC10567573

Exercise: for every item that follows, state its recorded protein stability index.
B1: ZBED1 (parent)
chain: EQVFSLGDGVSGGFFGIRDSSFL

- Variants of: B1
- test details: protein stability index of a GFP-peptide fusion (GPS, HEK-293T) (PSI 1-6); higher = more stable;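 further: lentivirally expressed fusions sorted by FACS into six bins by GFP to DsRed ratio, PSI derived from sequencing read proportions per bin multiplied by bin number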
- condition: c terminus: native
Numbers only.

Sample records with protein stability index:
Ask: Fill in the blank: the reported protein stability index of EQVFSLYDGVSGGFFGIRDSSFL [G7Y] is ____.
Result: 2.34

Ask: Fill in the blank: the reported protein stability index of EQVFSLGDGSSGGFFGIRDSSFL [V10S] is ____.
Result: 4.03

Ask: Fill in the blank: the reported protein stability index of EQVFSLGDGVSGGFFGIRDISFL [S20I] is ____.
Result: 2.42

Ask: Fill in the blank: the reported protein stability index of EQVFLLGDGVSGGFFGIRDSSFL [S5L] is ____.
Result: 2.24

Value sought for every listed variant: protein stability index.
1. MQVFSLGDGVSGGFFGIRDSSFL [E1M]
2. EQVFSLGDGVSGGFFGIRDGSFL [S20G]
3. EQVFSLGDDVSGGFFGIRDSSFL [G9D]

Result:
1. 1.89
2. 3.22
3. 4

Value sought for every listed variant: protein stability index.
1. EQVFSLGDGVSGGFFGIRDSSGL [F22G]
2. EQVFSPGDGVSGGFFGIRDSSFL [L6P]
3. EQVFSLGWGVSGGFFGIRDSSFL [D8W]
4. EQVFSLGDGVRGGFFGIRDSSFL [S11R]

Result:
[4.14, 3.96, 1.91, 2.89]

Value sought for every listed variant: protein stability index.
1. EQVFSLGNGVSGGFFGIRDSSFL [D8N]
2. EQVFSLGDGVSAGFFGIRDSSFL [G12A]
3. EQVFSLGDGVSGQFFGIRDSSFL [G13Q]
4. EQVFSLGDGVSGGFFGIRDWSFL [S20W]
5. EQVFSLGDGVSGAFFGIRDSSFL [G13A]
6. EQVFELGDGVSGGFFGIRDSSFL [S5E]

Result:
1. 2.88
2. 3.41
3. 3.48
4. 2.35
5. 3.28
6. 3.81

Value sought for every listed variant: protein stability index.
1. EQVFFLGDGVSGGFFGIRDSSFL [S5F]
2. EQVFSLGDGVSGGFNGIRDSSFL [F15N]
3. EQVFSLNDGVSGGFFGIRDSSFL [G7N]
4. EQVFSLGDGVDGGFFGIRDSSFL [S11D]
5. EQVFSLGDGFSGGFFGIRDSSFL [V10F]

Result:
1.75
4.21
3.28
4.01
2.75
